All values here come from patent US11168102B1.

target: SOS1 nucleotide exchange of wild-type KRAS (Homo sapiens (Human), UniProt Q07889)
Sequence (Q07889 564-1049): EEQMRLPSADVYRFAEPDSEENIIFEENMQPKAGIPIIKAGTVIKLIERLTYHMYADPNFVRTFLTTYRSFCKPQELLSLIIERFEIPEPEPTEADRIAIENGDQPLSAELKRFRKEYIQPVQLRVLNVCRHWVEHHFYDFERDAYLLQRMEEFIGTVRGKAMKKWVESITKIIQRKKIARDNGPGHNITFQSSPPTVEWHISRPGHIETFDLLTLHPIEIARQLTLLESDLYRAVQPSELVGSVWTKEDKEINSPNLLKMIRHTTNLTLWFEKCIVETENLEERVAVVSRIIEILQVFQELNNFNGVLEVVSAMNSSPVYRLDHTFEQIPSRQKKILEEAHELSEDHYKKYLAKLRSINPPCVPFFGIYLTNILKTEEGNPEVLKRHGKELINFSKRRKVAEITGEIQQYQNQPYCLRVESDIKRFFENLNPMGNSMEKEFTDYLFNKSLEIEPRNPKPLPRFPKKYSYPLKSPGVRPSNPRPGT
reportedEndpoint: IC50 (nM)
Report the value in nM with no unit label.

Value lookup for IC50; key = Cc1nc(N[C@H](C)c2cccc(C(F)F)c2F)c2cc(C3(F)CCN(C)CC3)c(=O)n(C)c2n1 [Example 29-4]
15.9

Value lookup for IC50; key = C[C@@H](Nc1ncnc2c1cc(C1(O)CCC3(CC1)CS(=O)(=O)C3)c(=O)n2C)c1cccc(C(F)F)c1F [Example 28-6]
14

Value lookup for IC50; key = C[C@@H](Nc1ncnc2c1cc(C(=O)N1CCN(C3COC3)CC1)c(=O)n2C)c1cccc(C(F)F)c1F [Example 26-43]
37

Value lookup for IC50; key = C[C@@H](Nc1ncnc2c1cc(C(=O)N1CC(C)(O)C1)c(=O)n2C)c1cccc(C(F)F)c1F [Example 26-3]
407

Value lookup for IC50; key = C[C@@H]1CN(C(=O)c2cc3c(N[C@H](C)c4cccc(C(F)F)c4F)ncnc3n(C)c2=O)C[C@@H](C)O1 [Example 26-21]
24.9

Value lookup for IC50; key = COc1ncccc1-c1cc2c(N[C@H](C)c3cccc(C(F)F)c3F)ncnc2n(C)c1=O [Example 21-7]
47.1

Value lookup for IC50; key = COc1ccc(-c2cc3c(N[C@H](C)c4cccc(C(F)F)c4F)ncnc3n(C)c2=O)cc1OC [Example 21-10]
532

###

Give IC50 for every item shown.
Report the value in µM with no unit label.

Which measured IC50 belongs to Cc1nc(N[C@H](C)c2cccc(C(F)F)c2F)c2cc(C3CCN(C)CC3)c(=O)n(C)c2n1 , tested on SOS1 nucleotide exchange of wild-type KRAS (Homo sapiens (Human), UniProt Q07889)?
0.0212

Which measured IC50 belongs to C[C@@H](Nc1ncnc2c1cc(C(=O)N1CCc3ncccc31)c(=O)n2C)c1cccc(C(F)F)c1F , tested on SOS1 nucleotide exchange of wild-type KRAS (Homo sapiens (Human), UniProt Q07889)?
0.0722

Which measured IC50 belongs to C[C@@H](Nc1ncnc2c1cc(C(=O)N1CCOCC1)c(=O)n2C)c1cccc(C(F)F)c1F , tested on SOS1 nucleotide exchange of wild-type KRAS (Homo sapiens (Human), UniProt Q07889)?
0.102

Which measured IC50 belongs to C[C@@H](Nc1ncnc2c1cc(C(=O)N1CCc3ccncc31)c(=O)n2C)c1cccc(C(F)F)c1F , tested on SOS1 nucleotide exchange of wild-type KRAS (Homo sapiens (Human), UniProt Q07889)?
0.0978

Which measured IC50 belongs to Cc1nc(N[C@H](C)c2cccc(C(F)F)c2F)c2cc(C3=CCOC3)c(=O)n(C)c2n1 , tested on SOS1 nucleotide exchange of wild-type KRAS (Homo sapiens (Human), UniProt Q07889)?
0.257

Which measured IC50 belongs to COc1ncccc1-c1cc2c(N[C@H](C)c3cccc(C(F)F)c3F)nc(C)nc2n(C)c1=O , tested on SOS1 nucleotide exchange of wild-type KRAS (Homo sapiens (Human), UniProt Q07889)?
0.099

Which measured IC50 belongs to C[C@@H](Nc1ncnc2c1cc(C1=CCS(=O)(=O)CC1)c(=O)n2C)c1cccc(C(F)F)c1F , tested on SOS1 nucleotide exchange of wild-type KRAS (Homo sapiens (Human), UniProt Q07889)?
0.013

Which measured IC50 belongs to C[C@@H](Nc1ncnc2c1cc(-c1ccc[nH]1)c(=O)n2C)c1cccc(C(F)F)c1F , tested on SOS1 nucleotide exchange of wild-type KRAS (Homo sapiens (Human), UniProt Q07889)?
1.07

Which measured IC50 belongs to C[C@@H](Nc1ncnc2c1cc(C1=CCNCC1)c(=O)n2C)c1cccc(C(F)F)c1F , tested on SOS1 nucleotide exchange of wild-type KRAS (Homo sapiens (Human), UniProt Q07889)?
0.0212

Which measured IC50 belongs to C[C@@H]1CN(C(=O)c2cc3c(N[C@H](C)c4cccc(C(F)F)c4F)ncnc3n(C)c2=O)C[C@H](C)O1 , tested on SOS1 nucleotide exchange of wild-type KRAS (Homo sapiens (Human), UniProt Q07889)?
0.113

Which measured IC50 belongs to Cc1nc(N[C@H](C)c2cccc(C(F)F)c2F)c2cc(C3CCN(CC(F)(F)F)CC3)c(=O)n(C)c2n1 , tested on SOS1 nucleotide exchange of wild-type KRAS (Homo sapiens (Human), UniProt Q07889)?
0.708

Which measured IC50 belongs to Cc1nc(N[C@H](C)c2cccc(C(F)F)c2F)c2cc(-c3cccn(CCO)c3=O)c(=O)n(C)c2n1 , tested on SOS1 nucleotide exchange of wild-type KRAS (Homo sapiens (Human), UniProt Q07889)?
0.123

Which measured IC50 belongs to CC(=O)N1CC=C(c2cc3c(N[C@H](C)c4cccc(C(F)F)c4F)nc(C)nc3n(C)c2=O)CC1 , tested on SOS1 nucleotide exchange of wild-type KRAS (Homo sapiens (Human), UniProt Q07889)?
0.0956

Which measured IC50 belongs to CC(=O)N1CCC(c2cc3c(N[C@H](C)c4cccc(C(F)F)c4F)nc(C)nc3n(C)c2=O)CC1 , tested on SOS1 nucleotide exchange of wild-type KRAS (Homo sapiens (Human), UniProt Q07889)?
0.0536

Which measured IC50 belongs to C[C@@H](Nc1ncnc2c1cc(C1CCN(CCF)CC1)c(=O)n2C)c1cccc(C(F)F)c1F , tested on SOS1 nucleotide exchange of wild-type KRAS (Homo sapiens (Human), UniProt Q07889)?
0.00766

Which measured IC50 belongs to C[C@@H](Nc1ncnc2c1cc(-c1ccc3nonc3c1)c(=O)n2C)c1cccc(C(F)F)c1F , tested on SOS1 nucleotide exchange of wild-type KRAS (Homo sapiens (Human), UniProt Q07889)?
0.235

Which measured IC50 belongs to COC[C@H]1CCCN1C(=O)c1cc2c(N[C@H](C)c3cccc(C(F)F)c3F)ncnc2n(C)c1=O , tested on SOS1 nucleotide exchange of wild-type KRAS (Homo sapiens (Human), UniProt Q07889)?
0.0541

Which measured IC50 belongs to CC(=O)N1CCC(F)(c2cc3c(N[C@H](C)c4cccc(C(F)F)c4F)ncnc3n(C)c2=O)CC1 , tested on SOS1 nucleotide exchange of wild-type KRAS (Homo sapiens (Human), UniProt Q07889)?
0.0148

Which measured IC50 belongs to Cc1nc(N[C@H](C)c2cccc(C(F)F)c2F)c2cc(C3CCOC3)c(=O)n(C)c2n1 (some centres unmarked) , tested on SOS1 nucleotide exchange of wild-type KRAS (Homo sapiens (Human), UniProt Q07889)?
0.129

Which measured IC50 belongs to CC(=O)N1CC=C(c2cc3c(N[C@H](C)c4cccc(C(F)(F)F)c4C)ncnc3n(C)c2=O)CC1 , tested on SOS1 nucleotide exchange of wild-type KRAS (Homo sapiens (Human), UniProt Q07889)?
0.0443

Which measured IC50 belongs to C[C@@H](Nc1ncnc2c1cc(C(=O)N(C)c1nccs1)c(=O)n2C)c1cccc(C(F)F)c1F , tested on SOS1 nucleotide exchange of wild-type KRAS (Homo sapiens (Human), UniProt Q07889)?
0.331

Which measured IC50 belongs to C[C@@H](Nc1ncnc2c1cc(C1=CCN(C)CC1)c(=O)n2C)c1cccc(C(F)(F)F)c1 , tested on SOS1 nucleotide exchange of wild-type KRAS (Homo sapiens (Human), UniProt Q07889)?
0.0201

Which measured IC50 belongs to CC(=O)N1CC=C(c2cc3c(N[C@H](C)c4cccc5c4OCC5(F)F)ncnc3n(C)c2=O)CC1 , tested on SOS1 nucleotide exchange of wild-type KRAS (Homo sapiens (Human), UniProt Q07889)?
0.0128

Which measured IC50 belongs to C[C@@H](Nc1ncnc2c1cc(C1(O)CCS(=O)(=O)C1)c(=O)n2C)c1cccc(C(F)F)c1F (some centres unmarked) , tested on SOS1 nucleotide exchange of wild-type KRAS (Homo sapiens (Human), UniProt Q07889)?
0.0998

Which measured IC50 belongs to CC(=O)N1CC=C(c2cc3c(N[C@H](C)c4cccc(C(F)F)c4Cl)ncnc3n(C)c2=O)CC1 , tested on SOS1 nucleotide exchange of wild-type KRAS (Homo sapiens (Human), UniProt Q07889)?
0.094

Which measured IC50 belongs to C[C@@H](Nc1ncnc2c1cc(C1CCS(=O)(=O)C1)c(=O)n2C)c1cccc(C(F)F)c1F (some centres unmarked) , tested on SOS1 nucleotide exchange of wild-type KRAS (Homo sapiens (Human), UniProt Q07889)?
0.0427

Which measured IC50 belongs to C[C@@H](Nc1ncnc2c1cc(C(=O)N1C3CC1CN(C)C3)c(=O)n2C)c1cccc(C(F)F)c1F , tested on SOS1 nucleotide exchange of wild-type KRAS (Homo sapiens (Human), UniProt Q07889)?
0.0461

Which measured IC50 belongs to C[C@@H](Nc1ncnc2c1cc(C(=O)N1CC(O)(C(F)(F)F)C1)c(=O)n2C)c1cccc(C(F)F)c1F , tested on SOS1 nucleotide exchange of wild-type KRAS (Homo sapiens (Human), UniProt Q07889)?
0.17
